Measured Ki values are reported for all entries that follow.
target-of-assay: 5-HT1A receptors (Homo sapiens)
Construct: University of North Carolina Psychoactive Drug Screening Project (PDSP), contract testing
Sequence (P08908 whole entry): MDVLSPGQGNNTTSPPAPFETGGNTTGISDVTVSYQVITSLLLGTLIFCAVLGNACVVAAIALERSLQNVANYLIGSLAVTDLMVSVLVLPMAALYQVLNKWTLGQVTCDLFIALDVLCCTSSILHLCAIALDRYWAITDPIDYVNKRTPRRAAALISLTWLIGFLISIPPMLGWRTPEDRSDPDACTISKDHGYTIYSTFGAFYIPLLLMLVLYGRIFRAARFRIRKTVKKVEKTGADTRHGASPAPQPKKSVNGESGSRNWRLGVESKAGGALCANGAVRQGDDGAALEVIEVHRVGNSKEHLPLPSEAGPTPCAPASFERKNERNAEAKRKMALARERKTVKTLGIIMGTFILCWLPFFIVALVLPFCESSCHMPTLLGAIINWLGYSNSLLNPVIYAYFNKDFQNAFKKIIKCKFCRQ
test-name: PDSP radioligand competition binding, 5-HT1A
applied-conditions: secondary binding assay, average of n = 3

# compound, assay-result
measured = [
    ("FC(F)(F)c1cccc(N2CCN(Cc3cccc4c3OCO4)CC2)c1 [Compound 2, 3-TFMPP-2,3-MDBP]", "864 nM"),
    ("FC(F)(F)c1ccccc1N1CCN(Cc2cccc3c2OCO3)CC1 [Compound 1, 2-TFMPP-2,3-MDBP]", "> 1000 nM"),
    ("FC(F)(F)c1ccc(N2CCN(Cc3ccc4c(c3)OCO4)CC2)cc1 [Compound 6, 4-TFMPP-3,4-MDBP]", "> 1000 nM"),
    ("FC(F)(F)c1ccc(N2CCN(Cc3cccc4c3OCO4)CC2)cc1 [Compound 3, 4-TFMPP-2,3-MD]", "> 1000 nM"),
    ("FC(F)(F)c1ccccc1N1CCN(Cc2ccc3c(c2)OCO3)CC1 [Compound 4, 2-TFMPP-3,4-MDBP]", "> 1000 nM"),
]

Okay, now this compound:
Ki on 5-HT1A receptors (Homo sapiens) for FC(F)(F)c1cccc(N2CCN(Cc3ccc4c(c3)OCO4)CC2)c1 [Compound 5, 3-TFMPP-3,4-MDBP] is 188 nM

// data source = paper PMC6197089
